Ref: ChEMBL document CHEMBL1130080

Assay: Statistical significance of IC 50 values; Expressed as R value
Format: ADME
observable: Activity

Illustrative cases are given below, each with its answer.
CCCCCCCCCC[C@@H](O)[C@@H]1CC[C@@H]([C@@H]2CC[C@@H]([C@H](O)CCCCCCCCCC(O)CC3=CC(C)OC3=O)O2)O1 (stereo partly drawn)    0.97
CCCCCCCCCC[C@@H](O)[C@@H]1CC[C@H]([C@H](O)CC[C@H](O)[C@@H]2CC[C@@H](CCCCCCC[C@@H](O)CC3=C[C@H](C)OC3=O)O2)O1    0.94

// next entry
Problem: Value lookup for Activity; key = CCCCCCCCCCCC/C=C\CC[C@@H](O)[C@H](O)CC[C@H](O)[C@@H]1CC[C@@H](CCCCC[C@@H](O)CC2=C[C@H](C)OC2=O)O1
Result: 0.98
